This collection of values is drawn from patent US8765773B2.

Target: purified human HDAC6 (Homo sapiens)
Construct: purchased BPS Bioscience 5006
Sequence (Q9UBN7 whole entry): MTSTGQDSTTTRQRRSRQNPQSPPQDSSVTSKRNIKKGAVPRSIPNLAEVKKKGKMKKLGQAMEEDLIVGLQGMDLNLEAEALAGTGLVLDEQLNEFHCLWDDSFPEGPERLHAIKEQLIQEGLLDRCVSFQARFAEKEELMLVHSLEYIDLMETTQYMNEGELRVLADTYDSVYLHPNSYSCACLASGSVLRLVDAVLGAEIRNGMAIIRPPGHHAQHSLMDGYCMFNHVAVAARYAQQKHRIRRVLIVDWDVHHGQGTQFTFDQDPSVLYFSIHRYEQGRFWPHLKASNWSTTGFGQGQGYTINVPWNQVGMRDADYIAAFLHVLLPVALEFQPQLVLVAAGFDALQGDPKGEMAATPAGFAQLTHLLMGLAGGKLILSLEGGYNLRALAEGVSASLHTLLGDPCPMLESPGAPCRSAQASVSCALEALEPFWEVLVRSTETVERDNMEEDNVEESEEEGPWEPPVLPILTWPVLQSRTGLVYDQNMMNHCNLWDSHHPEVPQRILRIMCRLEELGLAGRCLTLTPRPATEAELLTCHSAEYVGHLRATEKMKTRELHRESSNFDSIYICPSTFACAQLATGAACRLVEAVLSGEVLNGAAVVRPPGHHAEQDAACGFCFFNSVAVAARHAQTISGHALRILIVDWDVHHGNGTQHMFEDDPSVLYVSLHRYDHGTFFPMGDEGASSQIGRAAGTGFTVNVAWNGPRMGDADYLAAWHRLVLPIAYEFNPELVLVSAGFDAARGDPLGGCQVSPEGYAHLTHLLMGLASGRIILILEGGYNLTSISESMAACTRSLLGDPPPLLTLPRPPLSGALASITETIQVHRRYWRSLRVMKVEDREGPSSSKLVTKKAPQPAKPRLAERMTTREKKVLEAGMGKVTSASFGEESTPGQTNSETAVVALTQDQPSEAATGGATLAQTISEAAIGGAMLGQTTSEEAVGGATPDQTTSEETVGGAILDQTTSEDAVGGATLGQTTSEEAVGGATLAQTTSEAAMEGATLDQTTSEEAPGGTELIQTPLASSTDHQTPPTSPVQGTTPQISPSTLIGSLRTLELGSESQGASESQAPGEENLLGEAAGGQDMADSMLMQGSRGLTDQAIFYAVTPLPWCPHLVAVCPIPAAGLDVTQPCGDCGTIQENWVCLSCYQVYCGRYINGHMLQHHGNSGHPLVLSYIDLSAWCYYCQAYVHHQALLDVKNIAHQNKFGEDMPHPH
Assay: HDAC6 Enzyme Assay
Format: biochemical
Conditions: compound concentration 0.412 μM, read-out: Percent Inhibition
MEASUREMENT_LABEL: inhibition at 0.412 µM (%)
Provide only the numeric value, understood in %.

Query: inhibition at 0.412 µM; subject: O=C(NO)c1ccc2ccn(CCOc3ccccc3)c(=O)c2c1
97.6

Query: inhibition at 0.412 µM; subject: O=C(NO)c1ccc2ccn(Cc3cccc(C(F)(F)F)c3)c(=O)c2c1
95.7

Query: inhibition at 0.412 µM; subject: O=C(NO)c1ccc2ccn(CCOc3ccc(OCc4ccccc4)cc3)c(=O)c2c1
83.4

Query: inhibition at 0.412 µM; subject: O=C(NO)c1ccc2ccn(CCOc3cccc(C(F)(F)F)c3)c(=O)c2c1
95.5
